Every entry's value here was drawn from a melting point compilation (Tetko et al.).

Items are presented alongside their recorded melting point.
Settings: a range is the spread between reports

Consider the following illustrative entries.
CN(C)CCC=C1c2ccccc2CCc2ccccc21: 196 °C
O=[N+]([O-])c1ccc(F)cc1: 21 to 23 °C
C=CCc1ccccc1OCC(O)CNC(C)C (stereo unspecified): 108 to 109 °C
O=P(O)(c1ccccc1)c1ccccc1: 194 to 195 °C
C=C(CC(=O)OC)C(=O)OC: 36 to 38 °C
CCCCCCCCCCCCCCCCCO: 53.8 to 58 °C
CC(C)(C)CC(=O)O: 6 to 6.5 °C
CC(=O)c1cccc(N)c1: 96 to 98.5 °C
C=C(C)C(C)C: -157 °C
COc1ccc(NC(C)=O)cc1: 127 to 131 °C

Report melting point for `CCCCC(=O)O`
-34 to -33.7 °C

Quote melting point reported for `CCC(=O)c1ccc(Cl)cc1` please.
35 to 37.3 °C

Report measured melting point; entry is `FC(F)(F)C(F)(F)C(F)(F)C(F)(F)C(F)(F)C(F)(F)C(F)(F)C(F)(F)F`
-25 to -23.2 °C

Output measured melting point for this item: `Brc1ccc(-c2ccccc2)cc1`
90 to 91.5 °C

Indicate its recorded melting point; the compound in question is `C=C(C)CCC(=C)C`
-75.6 to -75 °C

Report melting point, nothing else, for this compound: `COc1cc(Cl)ccc1N`
51 to 52 °C

Fill in melting point for record `COC(=O)c1ccccc1`
-15 to -12 °C

Fill in reported melting point for this entry: `O=C(O)c1ccccc1Nc1ccccc1`
184 to 187 °C

====

Entries and their melting point
Conditions: a range is the spread between reports

Here is how some compounds turned out for melting point.
O=C(O)CCCc1c[nH]c2ccccc12: 123 to 124 °C
CN(C)C(=O)Nc1cccc(C(F)(F)F)c1: 164 °C
OCCOc1ccccc1: 12 to 14 °C
OCCCCCCCCCCCCO: 81.3 to 83 °C
c1ccc2c(c1)Cc1cc3ccccc3cc1-2: 208 to 212 °C

Give melting point for the following compound: `Nc1cc(Cl)cc(Cl)c1`
51 to 53 °C

====

Attribute: melting point
Settings: a range is the spread between reports

Use these answered entries as a reference point.
NC(=O)c1ccc(C(F)(F)F)cc1: 184 to 185 °C
CCOC(=O)C(NC=O)C(=O)OCC: 48.5 to 53 °C
CC(C)(C)Br: -20 to -16 °C

Let's switch to this compound now.
Answer with the recorded melting point of `Cc1ccc(Cl)cc1N` only.
23 to 26 °C

====

Conditions: a range is the spread between reports
melting point values by entry

CCOC(=O)c1ccccc1N: 13 to 15 °C
CCCSCCC: -103 to -102 °C
C1=CCCCC1: -104 °C
O=C(O)CCc1c[nH]c2ccccc12: 134 °C
CC(=O)c1ccc2ccccc2c1O: 99 to 101 °C
CC(=O)O: 16.6 to 17 °C
CCCN(CCC)CCC: -94 to -93 °C
CCCCCCCCCCCCCCCCCC: 28 to 28.2 °C
CCO[Si](OCC)(OCC)OCC: -86 to -82.5 °C
ClCc1cccc(CCl)c1: 34.2 to 36 °C

State its melting point for this compound: `Nc1cc([N+](=O)[O-])cc([N+](=O)[O-])c1`
161 to 163 °C

Tell me melting point reported for `CC(C)S`
-131 to -130 °C

Report melting point, nothing else, for this compound: `CC(=O)N1CCOCC1`
10 to 14.5 °C

Could you please provide reported melting point for `CCCCCCCCCC(=O)Cl` ? Thanks!
-35 to -34.5 °C

====

Conditions: a range is the spread between reports
measurementType: melting point

Past entries and their recorded results:
CC(=O)c1cc2ccccc2o1: 71 to 76 °C
COc1ccc(O)cc1OC: 81 to 83 °C

Fill in reported melting point for this entry: `BrCc1ccccc1CBr`
94 to 95 °C

====

Conditions: a range is the spread between reports
melting point reference

COc1ccccc1[N+](=O)[O-]: 9.4 to 10.5 °C
OCC(O)CO: 17.8 to 18.2 °C
CC1(C)CCCC1: -70 to -69.8 °C
CC(C)CCCC(C)C: -103 °C
CCCCSC: -98 to -97.8 °C
O=Cc1c[nH]c2ccccc12: 196 to 197 °C
CC[Si](Cl)(Cl)CC: -97 to -96.5 °C
Cc1csc(S)n1: 88 to 89.3 °C

Determine from records and report melting point for `O=C(O)c1ccccc1I`
162 to 163 °C

// Input: `CCOc1ccc(O)cc1` . Output its melting point only.
66 to 66.5 °C

Specify melting point for `Clc1cccc(Cl)c1` and stop.
-25 to -24.8 °C

Report melting point, nothing else, for this molecule: `CCCCCCOCCO`
-45.1 to -42 °C

Could you please provide reported melting point for NCC(O)c1ccccc1 (stereo not given) ? Thanks!
56.5 to 57 °C

Given the molecule `O=S1(=O)CC=CC1` , write its reported melting point.
64.5 to 65 °C

In one line, give reported melting point of the entry `Cc1ccc(C(=O)O)cc1C` .
165 to 166 °C

====

Conditions: a range is the spread between reports
measurementType: melting point

Use these answered entries as a reference point.
OCCCO: -27 to -26 °C
CC=C(C)CCC: -119 to -118 °C

Name the recorded melting point of the item `O=c1c(O)c(-c2ccccc2)oc2cc(O)cc(O)c12` in your answer.
214 to 215 °C

For the compound `O=C(Cl)c1cc(C(=O)Cl)cc(C(=O)Cl)c1` , give its measured melting point value.
36 to 36.3 °C
